Test system: SNB-75 CNS
Assay: NCI tumour cell line growth inhibition, 48 h
// TGI lookup, one value per entry
Write the value in µM as a bare number.

Some compounds with known TGI results, for comparison:
{"given smiles": "COc1cccc(NC(=O)c2ccc(C(F)(F)F)nc2Nc2ccc(Cl)cc2C)c1", "TGI, µM": 25.5}
{"given smiles": "CCN(CCc1ccc(F)cc1)c1ccc(CO)c(Cl)c1", "TGI, µM": 25.9}
{"given smiles": "COc1ccc(/C=C/c2cc(=O)cc(/C=C/c3ccc(OC)c(O)c3)o2)cc1O", "TGI, µM": 22.6}

Problem: Name the recorded TGI for `CN(C)CCNc1ccc2nnn3c4ccc(Cl)cc4c(=O)c1c23` .
Result: 9.78

----------
Recorded TGI for the following molecules
System: U251 CNS
Assay: NCI tumour cell line growth inhibition, 48 h

// solved cases for TGI follow
{"molecule": "C/C(CC(=O)Nc1ccc(C)cc1)=N\\NC(N)=S", "experimental system": "U251 CNS", "readout value": "> 100 µM"}
{"molecule": "Cc1ccc2nc(NC(=O)CSC(=S)N3CCN(Cc4ccccc4)CC3)sc2c1", "experimental system": "U251 CNS", "readout value": "> 100 µM"}

Then this molecule:
Problem: If you can, please state the reported TGI value of C=C(Cl)C(Br)(CCl)CCC(Cl)C(C)C (stereo not drawn) (tested in a mixture with another compound) .
Result: 3.14 µM

----------
Test system: K-562 leukemia
Assay: NCI tumour cell line growth inhibition, 48 h
# Lookup of reported TGI keyed by entry
Express the result in µM but write the number alone.

{"given smiles": "CC(=O)[CH-]C(=O)c1ccccc1.CC(=O)[CH-]C(=O)c1ccccc1.[O-]c1ccc(O)cc1.[O-]c1ccc(O)cc1.[Ti+4]", "experimental system": "K-562 leukemia", "TGI, µM": 76}

Problem: Param item = `COc1ccc(CNCCCN2C(=O)c3ccc4c5c(ccc(c35)C2=O)C(=O)N(CCCNCCCCNCCCN)C4=O)c(OC)c1OC` ; retrieve measured TGI.
Result: 12.7

----------
System: T-47D breast
Test: NCI tumour cell line growth inhibition, 48 h
observation type: TGI

Some entries whose results are on file:
{"compound": "CCOC(=O)C1C(=O)CC(C)(O)C(C(=O)OCC)C1c1ccc(O)c(OC)c1 (stereo not drawn)", "readout value": "> 100 µM"}
{"compound": "S=c1scc(-c2ccc(Cl)cc2)n1OC1CCCC1", "readout value": "> 100 µM"}
{"compound": "Cc1ccc(-c2n[nH]c(CC#N)n2)cc1", "readout value": "> 100 µM"}
{"compound": "C/C(=N/NC(=S)Nc1cccc(Cl)c1)c1cccc(/C(C)=N\\NC(=S)Nc2cccc(Cl)c2)n1", "readout value": "> 100 µM"}
{"compound": "O=C(/C=C/c1ccc(O)c(O)c1)Oc1ccccc1", "readout value": "65.2 µM"}
{"compound": "CC(C)C(OC(=O)c1cc(NC(=S)c2ccccc2)ccc1Cl)C(C)C", "readout value": "29.5 µM"}

Problem: For the compound shown here, `COc1ccc(-c2ccc(=O)oc2-c2cc(OC)c(OC)c(OC)c2)cc1O` , give the reported TGI.
Result: > 100 µM

Problem: # get_value(readout='TGI', item= CC1(C)C2CCC1(C)C(NC(=O)CCN1CCOCC1)C2 (stereo not drawn) )
Result: > 100 µM

Sourced from PubChem BioAssay (NCI)
